System: PSMA-expressing LNCaP cancer xenografts
study-conditions: mouse, in vivo
Each entry below carries its reported Tumor: Muscle ratio.
Answer using only a numeral; do not append any unit.

Answered cases to consult:
>>> recorded_measurement("O=C(O)CCC[C@H](NC(=O)N[C@@H](CCCCNC(=O)[C@H](Cc1c2ccccc2cc2ccccc12)NC(=O)Cc1ccc(CNC(=O)CN2CCN(CC(=O)O)CCN(CC(=O)O)CCN(CC(=O)O)CC2)cc1)C(=O)O)C(=O)O [68Ga-HTK04036, metal not drawn]")
139
>>> recorded_measurement("O=C(O)CSC[C@H](NC(=O)N[C@@H](CCCCNC(=O)[C@H](Cc1c2ccccc2cc2ccccc12)NC(=O)[C@H]1CC[C@H](CNC(=O)CN2CCN(CC(=O)O)CCN(CC(=O)O)CCN(CC(=O)O)CC2)CC1)C(=O)O)C(=O)O [68Ga-HTK03177, metal not drawn]")
220
>>> recorded_measurement("O=C(O)CCC[C@H](NC(=O)N[C@@H](CCCCNC(=O)[C@H](Cc1ccc2ccccc2c1)NC(=O)[C@H]1CC[C@H](CNC(=O)CN2CCN(CC(=O)O)CCN(CC(=O)O)CCN(CC(=O)O)CC2)CC1)C(=O)O)C(=O)O [68Ga-HTK03169, metal not drawn]")
47.1

Shifting focus to the compound that follows.
Query: What does the record list as Tumor: Muscle ratio for O=C(O)CCCCC(NC(=O)N[C@@H](CCCCNC(=O)[C@H](Cc1c2ccccc2cc2ccccc12)NC(=O)[C@H]1CC[C@H](CNC(=O)CN2CCN(CC(=O)O)CCN(CC(=O)O)CCN(CC(=O)O)CC2)CC1)C(=O)O)C(=O)O (single isomer, unassigned) [68Ga-HTK03189B, metal not drawn] ?
Result: 5.68

---

test-description: in vivo
Design: species or system mice
study-conditions: male, NODSCID 1L2RγKO, mouse, iv, total radioactivity, Muscle uptake
Assign Fulfilled whenever tissue uptake at 4 h does not fall below 0.8 %ID/g; assign Not fulfilled whenever it does.

>>> class_assignment("COc1ccc(CCCC(=O)NCC(=O)N[C@@H](CCCCNC(=O)CN2CCN(CC(=O)O)CCN(CC(=O)O)CCN(CC(=O)O)CC2)C(=O)NC[C@H]2CC[C@H](C(=O)N[C@@H](Cc3c4ccccc4cc4ccccc34)C(=O)NCCCC[C@H](NC(=O)N[C@@H](COCC(=O)O)C(=O)O)C(=O)O)CC2)cc1 [177Lu-HTK04028, metal not drawn]")
"Fulfilled"
>>> class_assignment("O=C(O)CCC[C@H](NC(=O)N[C@@H](CCCCNC(=O)[C@H](Cc1c2ccccc2cc2ccccc12)NC(=O)[C@H]1CC[C@H](CNC(=O)[C@H](CCCCNC(=O)CN2CCN(CC(=O)O)CCN(CC(=O)O)CCN(CC(=O)O)CC2)NC(=O)CNC(=O)CCCc2ccc(Cl)cc2)CC1)C(=O)O)C(=O)O [177Lu-HTK03153, metal not drawn]")
"Fulfilled"
>>> class_assignment("O=C(O)CCC[C@H](NC(=O)N[C@@H](CCCCNC(=O)[C@H](Cc1c2ccccc2cc2ccccc12)NC(=O)[C@H]1CC[C@H](CNC(=O)CN2CCN(CC(=O)O)CCN(CC(=O)O)CCN(CC(=O)O)CC2)CC1)C(=O)O)C(=O)O [177Lu-HTK03149, metal not drawn]")
"Not fulfilled"

Query: Could you please find out whether COc1ccc(CCCC(=O)NCC(=O)N[C@@H](CCCCNC(=O)CN2CCN(CC(=O)O)CCN(CC(=O)O)CCN(CC(=O)O)CC2)C(=O)NC[C@H]2CC[C@H](C(=O)N[C@@H](Cc3c4ccccc4cc4ccccc34)C(=O)NCCCC[C@H](NC(=O)N[C@@H](CCCC(=O)O)C(=O)O)C(=O)O)CC2)cc1 [177Lu-HTK03170, metal not drawn] has tissue uptake at 4 h that meets 0.8 %ID/g or exceeds it?
Result: Not fulfilled

Query: Quick one: COc1ccc(CCCC(=O)NCC(=O)N[C@@H](CCCCNC(=O)CN2CCN(CC(=O)O)CCN(CC(=O)O)CCN(CC(=O)O)CC2)C(=O)NC[C@H]2CC[C@H](C(=O)N[C@@H](Cc3c4ccccc4cc4ccccc34)C(=O)NCCCC[C@H](NC(=O)N[C@@H](CSCC(=O)O)C(=O)O)C(=O)O)CC2)cc1 [177Lu-HTK04048, metal not drawn]
Result: Fulfilled
